Recorded measurements of GI50, one per entry
System: DU-145 prostate
test: NCI tumour cell line growth inhibition, 48 h
testReadout: GI50

[[record]]
compound = "OC(c1cc(-c2ccccc2)nc2ccc(Cl)cc12)C1CCCCN1 (stereo unspecified)"
measuredresult = "3.07 µM"

[[record]]
compound = "N#Cc1cccc(CSc2ncnc3nc[nH]c23)c1"
measuredresult = "73.6 µM"

[[record]]
compound = "CCCCC(CC)CN=C(N)NC(N)=NCCCCCCN=C(N)NC(N)=NCC(CC)CCCC (stereo unspecified)"
measuredresult = "3.26 µM"

[[record]]
compound = "COc1cc2c(c(OC)c1)C1c3ccccc3NC(=O)N1CC2 (stereo unspecified)"
measuredresult = "4.84 µM"

[[record]]
compound = "COc1cc(/C=C/c2cc(O)c3cc(C(C)=O)c(=O)oc3c2)cc2c1O[C@]1(C)CC[C@@H](O)C(C)(C)[C@H]1C2"
measuredresult = "> 27.8 µM"

[[record]]
compound = "Cc1ccc(-c2cn3ccnc3c(-c3ccc(Cl)cc3)n2)cc1"
measuredresult = "0.214 µM"


* * *

Tested on: HOP-92 NSCLC
test: NCI tumour cell line growth inhibition, 48 h
Where a SMILES comes first, the peptide text is derived from it. [ ]: non-standard residue; d: D form. The star is where a group is joined. X28 = COC1=CC(=O)N(C(=O)[C@@H](O*)C(C)C)[C@H]1Cc1ccccc1; NMeV = CN[C@H](C(=O)O)C(C)C; Hexanoyl = CCCCCC(=O)*
testReadout: TGI

[[record]]
compound = "CCOC(CN=C=S)OCC"
measuredresult = "> 10 µM"

[[record]]
compound = "CCN(CC)CCC(=O)c1ccc(Oc2ccc(Cl)cc2)cc1"
measuredresult = "32.8 µM"

[[record]]
compound = "C#CCOCn1cnc2c(Cl)ncnc21"
measuredresult = "> 100 µM"

[[record]]
compound = "CCc1ccccc1NC(=O)C(=O)CC(=O)c1sc(Nc2ccccc2)nc1C"
measuredresult = "> 100 µM"

[[record]]
compound = "COCCN(C(C)=O)C1CCC2(SCCS2)c2[nH]c3ccccc3c21 (configuration not stated)"
measuredresult = "> 100 µM"

[[record]]
compound = "CC#CC#C/C=C1/O[C@]2(CCC(OC(C)=O)CO2)[C@@H]2O[C@H]12 (some centres not stated)"
measuredresult = "92.9 µM"

[[record]]
compound = "CC(=O)NC(CS/N=N/c1nc[nH]c1C(N)=O)C(=O)O (configuration not stated)"
measuredresult = "> 100 µM"

[[record]]
compound = "CCCCCC(=O)N[C@H](C(=O)N[C@H](C(=O)N(C)[C@H](C(=O)N1CCC[C@H]1C(=O)N1CCC[C@H]1C(=O)O[C@H](C(=O)N1C(=O)C=C(OC)[C@@H]1Cc1ccccc1)C(C)C)C(C)C)C(C)C)C(C)C (Hexanoyl-VV[NMeV]PP-X28)"
measuredresult = "> 100 µM"

[[record]]
compound = "CC(CCC(=O)O)[C@H]1CCC2[C@@H]3CC[C@@H]4CC(O)CC[C@]4(C)C3CC[C@@]21C (some centres not stated)"
measuredresult = "87.9 µM"

[[record]]
compound = "CCOc1ccc(NC(=O)C(=O)CC(=O)C2=C(C)Nc3ccccc3S2)cc1"
measuredresult = "> 50 µM"

[[record]]
compound = "C=CCNc1nc(C#N)c(N)s1"
measuredresult = "> 10 µM"

[[record]]
compound = "Cc1[nH]ccc2c1[nH]c1cc(=O)ccc12"
measuredresult = "> 100 µM"

[[record]]
compound = "CCCCCCCCCCCC(=O)OCC1OC(n2cc(F)c(=O)[nH]c2=O)C(NC(=O)OCc2ccccc2)C(OC(=O)CCCCCCCCCCC)C1O (configuration not stated)"
measuredresult = "> 100 µM"

[[record]]
compound = "COc1cc(C2CC(c3ccc4c(c3)OCO4)=NN2C=O)cc(OC)c1OC (configuration not stated)"
measuredresult = "> 100 µM"

[[record]]
compound = "Cc1ccc(C(=O)c2nnc(C(=O)c3ccc(C)cc3)nn2)cc1"
measuredresult = "> 100 µM"

[[record]]
compound = "CS(=O)(=O)N1CC(CCl)c2ccc([N+](=O)[O-])cc21 (configuration not stated)"
measuredresult = "> 100 µM"

[[record]]
compound = "N=C(N)c1ccc(-c2ccc(-c3cc(Cl)cc(Cl)c3)o2)nc1"
measuredresult = "3.14 µM"

[[record]]
compound = "COc1ccc(-c2n/c(=C\\c3c(O)[nH]c4ccc(OC)cc34)cc3c2=Nc2ccccc2-3)cc1"
measuredresult = "36.1 µM"

[[record]]
compound = "CCCC(C)c1cc(Cc2cc(Cl)cc(Cl)c2O)c(O)c(Cc2cc(Cl)cc(Cl)c2O)c1 (configuration not stated)"
measuredresult = "0.496 µM"

[[record]]
compound = "CN1CC[C@@]2(c3cccc(O)c3)CC(=O)/C(=C/c3ccccc3)[C@H]1C2"
measuredresult = "31 µM"

[[record]]
compound = "CCCc1[nH]c(SCCCCCCCCSc2nc(-c3ccc(F)cc3)c(CCC)[nH]2)nc1-c1ccc(F)cc1"
measuredresult = "29.6 µM"

[[record]]
compound = "CCOC(=O)c1ccc(N=C2C(=S)N(c3ccc(C(=O)OCC)cc3)C(=N)N2/N=C/c2ccccc2)cc1"
measuredresult = "36.2 µM"

[[record]]
compound = "O=c1/c(=C/c2ccccc2F)sc2nc3ccccc3n12"
measuredresult = "> 100 µM"

[[record]]
compound = "COC(=O)C1=CC2CCCC1(O)C(C(C)=O)C2 (configuration not stated)"
measuredresult = "> 100 µM"

[[record]]
compound = "Cc1c(/C=N/NC(=O)c2cc(Br)cc(Br)c2O)c(=O)n(-c2ccccc2)n1C"
measuredresult = "> 100 µM"

[[record]]
compound = "CC(=O)N1C(Nc2ccccn2)CCN1c1ccccc1 (configuration not stated)"
measuredresult = "> 10 µM"

[[record]]
compound = "CCC1C(C#N)=C(N)OC2=C1C(=O)CC(C)(C)C2 (configuration not stated)"
measuredresult = "> 100 µM"

